Provenance of the data: patent US9073855B2

TARGET UNDER TEST: GST-Bcl-2 (Homo sapiens)
Sequence (P10415 whole entry): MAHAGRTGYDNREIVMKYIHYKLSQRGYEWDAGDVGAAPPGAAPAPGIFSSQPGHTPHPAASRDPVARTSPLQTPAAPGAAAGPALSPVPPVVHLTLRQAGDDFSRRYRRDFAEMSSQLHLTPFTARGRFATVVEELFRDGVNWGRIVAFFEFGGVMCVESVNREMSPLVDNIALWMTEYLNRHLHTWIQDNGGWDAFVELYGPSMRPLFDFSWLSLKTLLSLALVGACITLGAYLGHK
ASSAY NOTES: TR-FRET binding assay, GST-Bcl-2 with F-Bak peptide probe
EXPERIMENTAL PARAMETERS: TR-FRET Binding Affinity, GST-Bcl-2, F-Bak peptide probe
pKi: −log10 of the molar value.
ASSAY METRIC: pKi

{"COMPOUND": "CC1(C)CCC(CN2CCN(c3ccc(C(=O)NS(=O)(=O)c4ccc(NCCN5CCCC5=O)c([N+](=O)[O-])c4)c(Oc4ccc5[nH]ccc5c4)c3)CC2)=C(c2ccc(Cl)cc2)C1", "ENDPOINT RESULT": 9.48}
{"COMPOUND": "CN(C)CC(=O)N1CCO[C@H](COc2ncc(S(=O)(=O)NC(=O)c3ccc(N4CCN(CC5=C(c6ccc(Cl)cc6)CC(C)(C)CC5)CC4)cc3Oc3cccc4[nH]ncc34)cc2Cl)C1", "ENDPOINT RESULT": 11.52}
{"COMPOUND": "CC1(C)CCC(CN2CCN(c3ccc(C(=O)NS(=O)(=O)c4ccc(NCC5CCOCC5)c([N+](=O)[O-])c4)c(Oc4cccc5c4CCNC5)c3)CC2)=C(c2ccc(Cl)cc2)C1", "ENDPOINT RESULT": 8.53}
{"COMPOUND": "CN(C)CCCNc1ccc(S(=O)(=O)NC(=O)c2ccc(N3CCN(CC4=C(c5ccc(Cl)cc5)CC(C)(C)CC4)CC3)cc2Oc2ccc3[nH]ccc3c2)cc1[N+](=O)[O-]", "ENDPOINT RESULT": 10.09}
{"COMPOUND": "CN1CCC(Nc2ccc(S(=O)(=O)NC(=O)c3ccc(N4CCN(CC5=C(c6ccc(Cl)cc6)CCCCC5)CC4)cc3Oc3cccc4[nH]ccc34)cc2[N+](=O)[O-])CC1", "ENDPOINT RESULT": 9.29}
{"COMPOUND": "CC(C)n1cc(CN2CCN(c3ccc(C(=O)NS(=O)(=O)c4ccc(NCC5CCOCC5)c([N+](=O)[O-])c4)c(Oc4ccc5[nH]ccc5c4)c3)CC2)c(-c2ccc(Cl)cc2)cc1=O", "ENDPOINT RESULT": 8.43}
{"COMPOUND": "CC1(C)CCC(CN2CCN(c3ccc(C(=O)NS(=O)(=O)c4cnc(OCC5(F)CCOCC5)c(C#N)c4)c(Oc4ccc5[nH]ccc5c4)c3)CC2)=C(c2ccc(Cl)cc2)C1", "ENDPOINT RESULT": 10.21}
{"COMPOUND": "CC(C1=C(c2ccc(Cl)cc2)CC(C)(C)CC1)N1CCN(c2ccc(C(=O)NS(=O)(=O)c3ccc(NN4CCN(C)CC4)c([N+](=O)[O-])c3)c(Oc3ccc4[nH]ccc4c3)c2)CC1 (stereo not shown)", "ENDPOINT RESULT": 9.90}
{"COMPOUND": "CC1(C)CCC(CN2CCN(c3ccc(C(=O)NS(=O)(=O)c4ccc(NC5CCN(C6Cc7ccccc7C6)CC5)c([N+](=O)[O-])c4)c(Oc4cccc5[nH]ccc45)c3)CC2)=C(c2ccc(Cl)cc2)C1", "ENDPOINT RESULT": 8.17}
{"COMPOUND": "CCN1CCCC1CNC(=O)c1cc(S(=O)(=O)NC(=O)c2ccc(N3CCN(Cc4ccccc4-c4ccc(Cl)cc4)CC3)cc2Oc2ccccc2)ccc1OC (stereo not shown)", "ENDPOINT RESULT": 8.17}
